Numbers sourced from PubChem BioAssay (EPA / NIEHS).

# Assay Summary: ATG_FoxO_CIS: Attagene CIS-FACTORIAL HepG2 Assay for human Forkhead box O (FoxO) (AID 2282943)
# Experimental Parameters: HepG2 Attagene cis-reporter, FoxO element, mRNA; actives raise or lower the signal
Calls of active or inactive are those of the source. The calls were made as follows: active = hit-call score of the fitted dose curve at least 0.9, where 1 is the maximum; inactive = score below 0.9.

| Molecule | outcome |
| --- | --- |
| Cc1ccc(C)c(C)c1 | inactive |
| Cc1cc(NC(=O)C(=O)O)cc(C)c1Oc1ccc(O)c2c1CCC2 | inactive |
| CC(=O)OC/C=C(\C)CCC=C(C)C | inactive |
| CC1(C)NC(=O)NC1=O | inactive |
| CC(=O)Oc1ccccc1C(=O)O | inactive |
| CCCc1cc(=O)[nH]c(=S)[nH]1 | inactive |
| Oc1ccc2ccccc2c1N=Nc1ccccc1 | inactive |
| CC(C)(C)c1cc(O)c(C(C)(C)C)cc1O | inactive |
| Cc1ccc(Cl)cc1 | inactive |
| C[C@]12C=CC(=O)C=C1CC[C@@H]1[C@@H]2C(=O)C[C@@]2(C)[C@H]1CC[C@]2(O)C(=O)CO | inactive |
| Cc1cccc(C)c1O | inactive |
| Cc1ccccc1Cl | inactive |
| CCCCCC(=O)O | inactive |
| CC=Cc1ccc(O)c(OC)c1 | inactive |
| COc1ccc2c(c1)c(CC(=O)O)c(C)n2C(=O)c1ccc(Cl)cc1 | inactive |
| CCCCCCOCCO | inactive |
| CC(=O)C(C)=CC1C(C)=CCCC1(C)C (stereo not given) | inactive |
| CCCCCCC(=O)OCC | inactive |
| O=C(O)Cc1ccccc1Nc1c(Cl)cccc1Cl | inactive |
| CCCCCCCCCCO | inactive |
